experiment: inhibition of endothelial tube formation, primary screen, imaging, VEGF stimulated, CD31 staining, tube area, NPC library (AID 1117340); settings: VEGF-stimulated ADSC/ECFC co-culture, at 10 µM
Activity calls are given as the source filed them.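 Rule for the calls: active = compound that reduces growth-factor-driven endothelial tube area in a mixed cell culture, no cutoff stated; inactive = the rest.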
Select the correct class. Options are T for active, F for inactive and nothing else.

Input: Which outcome was entered for the molecule `O=C(O)CCCCCCNC1c2ccccc2CCc2ccccc21` in this test?
Output: F

Input: Recorded test call requested for `OC(c1ccccc1)(c1ccccc1)C1CCNCC1`
Output: F

Input: Please state the recorded outcome for this molecule: `Nc1ccc(Cl)cc1C(=O)c1ccccc1F`
Output: F

Input: Lab log entry: `C[C@]12CC[C@H](O)CC1=CC[C@@H]1[C@@H]2CC[C@]2(C)C(=O)CC[C@@H]12` — outcome as called in the assay?
Output: F

Input: Recorded test call requested for COC1CC(=C(c2cccs2)c2cccs2)C[N+](C)(C)C1 (stereo not drawn)
Output: F

Input: # lookup: test call for `NCc1cccnc1`
Output: F

Input: Please indicate how the test categorized `C[N+]1(CCC(C(N)=O)(c2ccccc2)c2ccccc2)CCCCC1` .
Output: F

Input: Call for entry `CC(C)(C)c1cc(O)ccc1O` :
Output: T

Input: Hey, what did the test say about `CC(C)(C)CC(C)(C)c1ccc(O)cc1` ?
Output: T

Input: Per the records of this test, what outcome belongs to `COC(=O)[C@@H](N)CCCN/C(N)=N/[N+](=O)[O-]` ?
Output: F

Input: Could you kindly confirm the outcome this assay logged for `O=C1c2ccccc2C(=O)c2ccccc21` ?
Output: F

Input: Hi, do you know how `CN1CCC(N(Cc2ccccc2)c2ccccc2)CC1` came out in this test?
Output: F

Input: Kindly provide the recorded test outcome for the following molecule: `COc1c2c(cc3c1OCO3)CCN(C)C2`
Output: F

Input: // return assay outcome for `C[C@]12C=CC(=O)C=C1CC[C@@H]1[C@@H]2CC[C@@]2(C)[C@H]1CC[C@]2(C)O`
Output: F

Input: What outcome does the record of this test show for CC(C)c1c(CN(C)C(C)Cc2ccccc2)n(C)n(-c2ccccc2)c1=O (stereo not drawn) ?
Output: F

Input: Hi, sorry to bother you, what did the test record for `COc1cccc([C@@]2(O)CCCC[C@@H]2CN(C)C)c1` ?
Output: F

Input: Entry `CC(C)NC(C)C` : call = ?
Output: F

Input: Which outcome did this test record for the molecule `Clc1ccccc1N1CCNCC1` ?
Output: T

Input: Give the logged outcome of this assay for the following molecule: `CN(C)C(=S)SSC(=S)N(C)C`
Output: F

Input: Fill in: this test's call for `CCN(CCO)CCn1c(Cc2ccccc2)nc2c1c(=O)n(C)c(=O)n2C` is ___
Output: F

Input: Test call, this molecule: `C=C1C[C@@H]2[C@H](CC[C@]3(C)C(=O)CC[C@@H]23)[C@@]2(C)C=CC(=O)C=C12`
Output: F

Input: Answer briefly: the call reported for `O=C(N[C@H]1N=C(c2ccccc2F)c2cccc3c2N(CC3)C1=O)c1cc2ccccc2[nH]1` in this assay.
Output: F

Input: Called result for `COc1cccc(C(=O)CCN[C@@H](C)[C@H](O)c2ccccc2)c1`
Output: T

Input: Record request — test call for NCC(O)c1ccc(O)cc1 (stereo not drawn)
Output: F

Input: How did this test come out for `C[C@@H]1O[C@@H](O[C@H]2C[C@@H](O)[C@]3(CO)[C@H]4[C@H](O)C[C@]5(C)[C@@H](C6=CC(=O)OC6)CC[C@]5(O)[C@@H]4CC[C@]3(O)C2)[C@H](O)[C@H](O)[C@H]1O` ?
Output: T

Input: Can you look up the reported call for `C=C(C)[C@H]1CN[C@H](C(=O)O)[C@H]1CC(=O)O` for me?
Output: F

Input: Write down the call the test reported for this molecule. Item: `Nc1ccccc1C(=O)O`
Output: F

Input: Call for entry CC(Cc1ccc2c(c1)OCO2)NCC(O)c1ccc(O)c(O)c1 (stereo not drawn) :
Output: F

Input: Recorded test call requested for CC(C)N(CCC(C(N)=O)(c1ccccc1)c1ccccn1)C(C)C (stereo not drawn)
Output: F

Input: So what was the verdict on `CC(=O)O[C@H]1C[C@H](O[C@H]2[C@@H](O)C[C@H](O[C@@H]3[C@@H](O)C[C@H](O[C@H]4CC[C@@]5(C)[C@H](CC[C@@H]6[C@H]5C[C@@H](O)[C@]5(C)[C@@H](C7=CC(=O)OC7)CC[C@]65O)C4)O[C@@H]3C)O[C@@H]2C)O[C@H](C)[C@H]1O[C@@H]1O[C@H](CO)[C@@H](O)[C@H](O)[C@@H]1O` in this test?
Output: T

Input: What is the recorded call for this molecule in the test? `COc1ccc(CN2CCNCC2)c(OC)c1OC`
Output: F

Input: Test call for this molecule, please: `CCCCc1ccc(C(=O)O)nc1`
Output: F

Input: For this molecule, state the assay outcome: `c1ccc2c(c1)Nc1ccccc1S2`
Output: F

Input: GET /call?item= `COC[C@@H](NC(C)=O)C(=O)NCc1ccccc1` returns the recorded outcome of this test.
Output: F

Input: Assay result, entry `CCC1(CC)C(=O)C=CNC1=O` — outcome?
Output: F

Input: Hi, sorry to bother you, what did the test record for CC(C)=CC1C(C(=O)OCN2C(=O)C3=C(CCCC3)C2=O)C1(C)C (stereo not drawn) ?
Output: F

Input: // return assay outcome for `CCCCCCC(=O)CCCCCC/C=C/C[C@@H](O)[C@H](O)[C@@](N)(CO)C(=O)O`
Output: F

Input: What is the recorded call for this molecule in the test? `N[C@@H](Cc1ccc(Oc2cc(I)c(O)c(I)c2)c(I)c1)C(=O)O`
Output: F

###

experiment: antimalarial activity against Dd2 strain (AID 2302);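 note: 0% = DMSO untreated growth and 100% = chloroquine plus artemisinin killed control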; details: P. falciparum Dd2 in RBCs, LDH growth readout, 72 h; at 2 µM; stronger effect = higher value
Provide the reported growth inhibition of each item.
Note: unit % is implicit; provide only the numeric part.

Input: Fill in reported growth inhibition for this entry: `COc1ccc(C=CC(=O)N2CCC(CN3CCC(c4c[nH]c5ccccc45)CC3)CC2)cc1OC`
Output: 4

Input: State its growth inhibition: `COc1ccc2[nH]cc(C3=CCN(C[C@H]4C[C@@H]4C(=O)c4ccccc4)CC3)c2n1`
Output: 93

Input: Name the recorded growth inhibition of the item Cc1ccc(CC(C)(C)NCC(O)c2cccc(C(F)(F)F)c2)cc1 (stereo unspecified) in your answer.
Output: 92

Input: Give the reported value of growth inhibition for this record: `CN(C)CCCOc1ccc(CN2CCC(c3c[nH]c4ccc(NCC5CCCCC5)cc34)CC2)cc1`
Output: 99

Input: State its growth inhibition for this compound: `COc1ccc(CN2CCN(CCOC(c3ccc(F)cc3)c3ccc(F)cc3)CC2)c(O)c1`
Output: 97

Input: Retrieve growth inhibition measured for COC(=O)c1ccc(CC(C)NCC(O)c2ccccc2Cl)cc1 (stereo unspecified) and print it.
Output: 55

###

molecular target: 6-phosphogluconate dehydrogenase, decarboxylating (Homo sapiens); test: 6PGD enzyme inhibitors, primary screen, biochemical, human, recombinant enzyme, NADPH absorbance (AID 1159550); conditions: recombinant 6PGD, NADPH absorbance 341 nm; at 10 µM; stronger effect = higher value
Give inhibition for every item shown.
Numbers only; they are read as %.

Input: For the molecule `C[C@@H]1C(=O)O[C@H]2[C@H]1CC[C@@]1(C)C=CC(=O)[C@@]3(C)O[C@@]213` , give its measured inhibition value.
Output: -5.96

Input: Please list inhibition recorded for the molecule CCC(C)C(=O)c1c(O)c(C)c2oc3c(C)c(O)c(C(=O)C(C)CC)c(O)c3c2c1O (configuration not stated)
Output: 4.14

Input: Please list inhibition recorded for the molecule `CCCCSP(=O)(SCCCC)SCCCC`
Output: 10.6

Input: Supply measured inhibition of `O=C(O)c1ccccc1-c1c2cc(Br)c(=O)cc-2oc2[c]([Hg])c(O)c(Br)cc12` in your reply.
Output: 2.12

Input: Provide measured inhibition value, entry: `COc1cc(OC)c(OC)cc1C=O`
Output: -2.13

Input: Identify measured inhibition associated with `CN1Cc2c(ccc3c2OCO3)[C@@H]2[C@H]1c1cc3c(cc1C[C@@H]2O)OCO3`
Output: 7.55

Input: Specify measured inhibition for COc1cc2c(cc1O)CCNC2C (configuration not stated) .
Output: -21.7

Input: Identify inhibition associated with the molecule `COc1cc2c(cc1OC)C(=O)c1ccc(OC)c(OC)c1OCC(=O)C2`
Output: -4.44

Input: Look up inhibition of `N#C/C(=C\c1ccc(O)cc1)C(=O)O` and report it.
Output: 0.31

Input: Give the reported inhibition for this molecule. `NCCc1cc(O)c(O)cc1O`
Output: 13

Input: // fetch inhibition given entry `CC[C@@]1(O)C[C@H](O[C@H]2C[C@H](N(C)C)[C@H](O)[C@H](C)O2)c2c(cc3c(c2O)C(=O)c2c(O)cccc2C3=O)[C@H]1C(=O)OC`
Output: -8.44

Input: Kindly indicate its recorded inhibition. Item: `COc1c2c(cc3c1OCO3)CCN(C)C2`
Output: 1.73

Input: Return inhibition for the following molecule: CCOC(=O)C1C(C=C(C)C)C1(C)C (configuration not stated)
Output: -0.74

Input: Tell me its inhibition given `O=C1CC[C@@]2(O)[C@H]3Cc4ccc(O)c5c4[C@@]2(CCN3CC2CC2)[C@H]1O5` as the entry.
Output: 9.6

Input: Identify the reported inhibition for the following entry. `Oc1c(Cl)c(Cl)c(Cl)c(Cl)c1Cl`
Output: 4.09

Input: Kindly indicate its recorded inhibition. Item: `S=C=NCc1ccccc1`
Output: -1.63

Input: Tell us which inhibition value is on record for `COC(=O)COc1cc(Cl)c(Cl)cc1Cl`
Output: -16.9

Input: Quick one: give measured inhibition for `CCCCCCCCCCCCCCCC[n+]1ccccc1`
Output: 10.7

Input: Provide measured inhibition value, entry: `COc1c(CC=C(C)C)c2c(c3oc(=O)c(-c4ccc(O)cc4)c(O)c13)C=CC(C)(C)O2`
Output: -2.87

Input: Name the recorded inhibition of the molecule listed here: `CCc1cccc(CC)c1N(COC)C(=O)CCl`
Output: -1.98

Input: Consider the molecule `CN[C@@H](C)[C@H](O)c1ccccc1` . State its measured inhibition.
Output: 16.5

Input: Report inhibition for `C/C=C/c1ccc2c(c1)OCO2`
Output: -4.44

Input: Return the recorded inhibition value; entry: `C[C@]12CCC(=O)C=C1C=C[C@@H]1[C@@H]2CC[C@@]2(C)[C@H]1CC[C@@]2(O)CCC(=O)O`
Output: -4.06

Input: Please list inhibition recorded for the molecule CC1(C)C(=O)[C@@H]2O[C@@H]2[C@@]2(C)C1C[C@@H](O)[C@]1(C)C2CC[C@@]2(C)[C@H](c3ccoc3)OC(=O)C3OC321 (some centres not stated)
Output: 4.53

Input: Return value of inhibition for input Clc1ccc(COC(Cn2ccnc2)c2ccc(Cl)cc2Cl)cc1 (configuration not stated) , no commentary.
Output: -10.8

Input: Give a short answer stating reported inhibition for CCCC(C)C1(CC)C(=O)NC(=S)NC1=O (configuration not stated) .
Output: -1.13

Input: Look up and report measured inhibition for this entry: `CN(C)[C@@H]1C(=O)C(C(N)=O)=C(O)[C@@]2(O)C(=O)C3=C(O)c4c(O)cccc4[C@@](C)(O)[C@H]3C[C@@H]12`
Output: -5.09

Source listed as PubChem BioAssay.
